These entries and their values trace back to patent US20180244611A1.

target-under-test: F508delCFTR (Homo sapiens, UniProt P13569, DEL508-508)
Construct: expressed in transfected cells; host or cells: CFBE41o- human lung-derived epithelial cells (CFBE41o-F508delCFTR-HRP), doxycycline-inducible
Sequence (P13569 with tags, fused parts or gaps DEL508-508): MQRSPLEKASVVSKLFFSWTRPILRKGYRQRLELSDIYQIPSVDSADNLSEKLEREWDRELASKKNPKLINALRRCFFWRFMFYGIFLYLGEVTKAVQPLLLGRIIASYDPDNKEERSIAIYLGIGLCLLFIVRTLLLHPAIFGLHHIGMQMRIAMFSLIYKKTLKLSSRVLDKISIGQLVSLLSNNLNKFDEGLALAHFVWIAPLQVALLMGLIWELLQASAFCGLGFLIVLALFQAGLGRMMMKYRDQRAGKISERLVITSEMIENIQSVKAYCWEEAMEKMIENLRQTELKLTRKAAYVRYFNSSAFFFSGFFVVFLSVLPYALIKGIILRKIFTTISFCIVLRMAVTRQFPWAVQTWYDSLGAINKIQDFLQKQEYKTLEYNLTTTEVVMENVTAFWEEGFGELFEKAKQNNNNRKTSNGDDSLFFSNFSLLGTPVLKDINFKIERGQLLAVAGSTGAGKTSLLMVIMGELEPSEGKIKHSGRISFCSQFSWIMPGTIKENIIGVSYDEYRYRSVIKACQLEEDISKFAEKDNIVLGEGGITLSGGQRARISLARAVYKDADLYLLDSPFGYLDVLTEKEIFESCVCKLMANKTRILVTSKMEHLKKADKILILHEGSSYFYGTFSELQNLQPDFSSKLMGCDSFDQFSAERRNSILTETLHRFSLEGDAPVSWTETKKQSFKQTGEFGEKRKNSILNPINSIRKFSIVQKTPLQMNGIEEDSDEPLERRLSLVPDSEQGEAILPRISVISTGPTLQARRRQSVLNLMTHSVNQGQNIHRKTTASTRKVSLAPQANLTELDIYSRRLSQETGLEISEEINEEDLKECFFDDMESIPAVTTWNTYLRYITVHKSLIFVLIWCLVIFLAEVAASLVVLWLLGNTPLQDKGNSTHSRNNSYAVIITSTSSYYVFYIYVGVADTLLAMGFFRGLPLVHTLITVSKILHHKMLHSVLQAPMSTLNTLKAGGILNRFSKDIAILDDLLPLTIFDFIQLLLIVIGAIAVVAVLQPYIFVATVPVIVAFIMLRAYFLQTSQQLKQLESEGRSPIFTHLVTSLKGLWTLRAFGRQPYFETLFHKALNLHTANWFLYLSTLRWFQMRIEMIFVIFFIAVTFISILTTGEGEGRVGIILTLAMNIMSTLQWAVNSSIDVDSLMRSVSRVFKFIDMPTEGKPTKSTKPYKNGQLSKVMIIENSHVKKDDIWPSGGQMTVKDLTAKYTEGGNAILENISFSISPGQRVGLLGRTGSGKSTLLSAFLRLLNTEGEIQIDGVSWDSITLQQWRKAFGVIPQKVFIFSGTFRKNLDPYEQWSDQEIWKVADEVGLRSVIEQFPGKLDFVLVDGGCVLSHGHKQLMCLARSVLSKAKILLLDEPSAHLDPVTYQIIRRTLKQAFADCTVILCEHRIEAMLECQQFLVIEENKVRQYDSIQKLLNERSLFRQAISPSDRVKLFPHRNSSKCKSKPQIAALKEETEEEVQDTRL
experiment-description: Cell Surface Expression-Horse Radish Peroxidase (CSE-HRP) assay, test compound without co-corrector;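 further: percent of on-plate 2 µM positive control corrector response over DMSO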
Format: cell-based
experimental-setup: maximum at any tested concentration, normalized to positive control, without co-corrector
measured-property: Emax

> print(dat)
                                    compound  measured.property  measured.value
 1  COc1ncc(Br)c2c1C(C(=O)NS(=O)(=O)c1cccc3ccccc13)CC2 (centres unmarked)               Emax          ≥ 150%
 2  COc1ccc(C2CCC2)c2c1[C@H](C(=O)NS(=O)(=O)c1cccc3ccccc13)CC2               Emax          ≥ 150%
 3  CC[C@@]1(C(=O)NS(=O)(=O)c2cccc3ccccc23)CCc2c(Cl)cccc21               Emax          ≥ 150%
 4  COc1cccc2c1CCC2C(=O)NS(=O)(=O)c1c(C)nn(CCCl)c1C (centres unmarked)               Emax           < 50%
 5  COc1ccc(Br)c2c1C(C(=O)NS(=O)(=O)c1cccc3nc(C)cn13)CC2 (centres unmarked)               Emax          ≥ 150%
 6  CCC1(C(=O)NS(=O)(=O)c2ccccc2-c2ccccc2)CCc2c(Cl)cccc21 (centres unmarked)               Emax           < 50%
 7  COc1ccc(Br)c2c1C(C(=O)NS(=O)(=O)c1cccc3ncc(C)n13)CC2 (centres unmarked)               Emax          ≥ 150%
 8  COc1ncc(Br)c2c1C(C(=O)NS(=O)(=O)c1cccc3ccccc13)CCC2 (centres unmarked)               Emax          ≥ 150%
 9  O=C(NS(=O)(=O)c1cccc2ccccc12)C1CCCc2c(OCC3CCCCC3)ccc(Br)c21 (centres unmarked)               Emax      50 to 150%
10  O=C(NS(=O)(=O)c1cccc2ccccc12)C1CCCc2c(OC3COC3)ccc(Br)c21 (centres unmarked)               Emax      50 to 150%
11  COc1cccc2c1CCC2C(=O)NS(=O)(=O)c1ncccc1C(=O)N(C)C (centres unmarked)               Emax           < 50%
12  COc1ccc(C2CCC2)c2c1C(C(=O)NS(=O)(=O)c1cccc3ccccc13)C2 (centres unmarked)               Emax          ≥ 150%
13  COc1ccc(-c2ccc(C)nc2)c2c1CCCC2C(=O)NS(=O)(=O)c1cccc2ccccc12 (centres unmarked)               Emax          ≥ 150%
14  CC1(C(=O)NS(=O)(=O)c2cccc3ccccc23)CCc2cccc(Cl)c21 (centres unmarked)               Emax          ≥ 150%
15  C[C@@]1(C(=O)NS(=O)(=O)c2cccc3ccccc23)CCc2c1ccc1c2OCO1               Emax          ≥ 150%
16  COc1ccc(Cl)c2c1[C@H](C(=O)NS(=O)(=O)c1cccc3ccccc13)CC2               Emax          ≥ 150%
17  COc1ccc(Br)c2c1CCC[C@H]2C(=O)NS(=O)(=O)c1cccc2ccccc12               Emax          ≥ 150%

###

target-under-test: F508delCFTR (Homo sapiens, UniProt P13569, DEL508-508)
Construct: expressed in transfected cells; host or cells: CFBE41o- human lung-derived epithelial cells (CFBE41o-F508delCFTR-HRP), doxycycline-inducible
experiment-description: Cell Surface Expression-Horse Radish Peroxidase (CSE-HRP) assay, test compound without co-corrector;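 further: percent of on-plate 2 µM positive control corrector response over DMSO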
Assay type: cell-based
experimental-setup: maximum at any tested concentration, normalized to on-plate positive control, without co-corrector
Experimental: Cell Surface Expression-Horse Radish Peroxidase (CSE-HRP) Assay […] The % activity measured at each of the 8 test concentrations of the test compound added either without or with a co-corrector (2 μM of 3-[(2R,4R)-4-({[1-(2,2-difluoro-1,3-benzodioxol-5-yl)cyclopropyl]carbonyl}amino)-7-methoxy-3,4-dihydro-2H-chromen-2-yl]benzoic acid) was normalized to the on-plate positive control using the following formulae: […]
Here the recorded Emax is given for each entry.
measured-property: Emax

> print(dat)
                                    compound  measured.value
 1  CCC1(C(=O)NS(=O)(=O)c2cccc(N3CCOCC3)c2C)CCc2c(Cl)cccc21 (stereo not drawn) [III-172]           < 50%
 2  COc1ccc(C2=CCOCC2)c2c1C(C(=O)NS(=O)(=O)c1cccc3ncccc13)CC2 (stereo not drawn) [III-169]          ≥ 150%
 3  COc1ccc(-c2cncnc2)c2c1C(C(=O)NS(=O)(=O)c1cccc3ccccc13)CCC2 (stereo not drawn) [III-164]      50 to 150%
 4  COc1ccc(N2CCCC2)c2c1CCCC2C(=O)NS(=O)(=O)c1cccc2ccccc12 (stereo not drawn) [III-174]           < 50%
 5  Cc1ccccc1S(=O)(=O)NC(=O)C1CCc2c(-c3ccn[nH]3)cccc21 (stereo not drawn) [III-98]           < 50%
 6  Cc1ccccc1S(=O)(=O)NC(=O)C1CCc2c(-c3c[nH]nc3C)cccc21 (stereo not drawn) [III-101]           < 50%
 7  Cc1ccccc1S(=O)(=O)NC(=O)C1CCc2c(-c3cn[nH]c3)cccc21 (stereo not drawn) [III-97]           < 50%
 8  CCC1(C(=O)NS(=O)(=O)c2cc(C)ccc2Cl)CCc2c(Cl)cccc21 (stereo not drawn) [III-118]           < 50%
 9  CCC1(C(=O)NS(=O)(=O)c2c(C)cccc2Cl)CCc2c(Cl)cccc21 (stereo not drawn) [III-124]           < 50%
10  COc1cccc2c1C(C(=O)NS(=O)(=O)c1cccc3ccccc13)CC2 (stereo not drawn) [III-182]      50 to 150%
11  COc1ccc2c(c1OC)CC2C(=O)NS(=O)(=O)c1cccc2ccccc12 (stereo not drawn) [III-177]           < 50%
12  COC(=O)c1ccc(OC)c2c1CCC2C(=O)NS(=O)(=O)c1cccc2ccccc12 (stereo not drawn) [III-184]      50 to 150%
13  Cc1ccccc1S(=O)(=O)NC(=O)C1CCc2c(-c3ccc(N4CCOCC4)nc3)cccc21 (stereo not drawn) [III-100]           < 50%
14  COc1ccc(Br)c2c1C(C(=O)NS(=O)(=O)c1cccnc1N)CC2 (stereo not drawn) [III-159]          ≥ 150%
15  CCOc1ccc(S(=O)(=O)NC(=O)C2CCc3c(Br)ccc(OC)c32)c2ccccc12 (stereo not drawn) [III-161]           < 50%
16  CCC1(C(=O)NS(=O)(=O)c2cccc(C#N)c2)CCc2c(Cl)cccc21 (stereo not drawn) [III-144]           < 50%
17  COc1cccc2c1CCC[C@H]2C(=O)NS(=O)(=O)c1cccc(N)n1 [III-109]           < 50%
18  CCC1(C(=O)NS(=O)(=O)c2ccc(Cl)cc2Cl)CCc2c(Cl)cccc21 (stereo not drawn) [III-113]           < 50%

###

target-under-test: F508delCFTR (Homo sapiens, UniProt P13569, DEL508-508)
Construct: expressed in transfected cells; host or cells: CFBE41o- human lung-derived epithelial cells (CFBE41o-F508delCFTR-HRP), doxycycline-inducible
experiment-description: Cell Surface Expression-Horse Radish Peroxidase (CSE-HRP) assay, test compound without co-corrector;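 further: percent of on-plate 2 µM positive control corrector response over DMSO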
Format: cell-based
experimental-setup: maximum at any tested concentration, normalized to positive control, without co-corrector
Here the recorded Emax is given for each entry.
measured-property: Emax

> print(dat)
                                   compound  measured.property  measured.value
1  Cc1ccccc1S(=O)(=O)NC(=O)C1CCc2ccccc2C1 (stereo not shown)               Emax           < 50%
2  COc1ccc(Br)c2c1CC[C@H]2C(=O)NS(=O)(=O)c1cccc2ccccc12               Emax          ≥ 150%
3  COc1cccc2c1CCC2C(=O)NS(=O)(=O)c1ccc(C)cc1 (stereo not shown)               Emax           < 50%
4  COc1ccc(C2CCC2)c2c1[C@H](C(=O)NS(=O)(=O)c1cccc3cnn(C)c13)CC2 (single isomer, unassigned)               Emax          ≥ 150%
